Just for reference, patent US11730720B2 is where these values come from.

# System: TGF-β-stimulated SMAD3 phosphorylation in BEAS-2B cells
# experimental_protocol: Cellular ALK5 potency assay, inhibition of TGF-β stimulated pSMAD3 formation in BEAS-2B cells
# Type: cell-based
# cond: Homo sapiens, inhibition of TGF-β (10 ng/mL) stimulated pSMAD3 formation, 1 hour compound incubation, read-out: BEAS2B pIC50 (converted)
quantity_measured: IC50

Here is how some molecules turned out for IC50.
Tell me IC50 reported for COCc1cccc(-c2n[nH]cc2-c2ccc3ncc(C4=CCC(N(C)C)CC4)cc3n2)c1 (stereo not shown)
0.0251 to 0.158 µM

For the molecule CN1CCN(CCNc2cnc3ccc(-c4c[nH]nc4-c4cc(Cl)ccc4F)nc3c2)CC1 , report IC50.
≤ 0.02 µM

Give IC50 for the following molecule: CN1CCN(CCNc2cnc3ccc(-c4c[nH]nc4-c4cc(Cl)c(F)cc4F)nc3c2)CC1
≤ 0.02 µM

Using known records, supply IC50 for O=C(O)[C@@H]1CN(c2cnc3ccc(-c4nc[nH]c4-c4cc(Cl)ccc4F)nc3c2)CCN1
0.2 to 1.26 µM

Consider the molecule NC1CCC(c2cnc3ccc(-c4c[nH]nc4-c4cc(Cl)ccc4F)nc3c2)CC1 (stereo not shown) and give its recorded IC50.
0.2 to 1.26 µM

In one line, give reported IC50 of the entry Fc1cc(F)c(-c2n[nH]cc2-c2ccc3ncc(NCC4CN5CCN4CC5)cc3n2)cc1Cl (stereo not shown) .
0.0251 to 0.158 µM

Complete the entry with IC50 for Fc1cc(F)c(-c2n[nH]cc2-c2ccc3ncc(-c4nnn5c4NCC5)cc3n2)cc1Cl
0.0251 to 0.158 µM

Fill in reported IC50 for this entry: Oc1cnc2ccc(-c3c[nH]nc3-c3cc(Cl)ccc3F)nc2c1
≤ 0.02 µM

Please list IC50 recorded for the molecule CNCCn1ccc(-c2cnc3ccc(-c4c[nH]nc4-c4cc(Cl)ccc4F)nc3c2)n1
≤ 0.02 µM

Please list IC50 recorded for the molecule NCCn1cc(-c2cnc3ccc(-c4nc[nH]c4-c4cc(Cl)c(F)cc4F)cc3c2)cn1
0.0251 to 0.158 µM

---
Look up and state reported IC50 for CC(C)N1CCN(CCNc2cnc3ccc(-c4nc[nH]c4-c4cccc(Cl)c4)cc3c2)CC1
0.0251 to 0.158 µM

Hello, please tell me recorded IC50 for this one: COC(=O)CC1CN(c2cnc3ccc(-c4c[nH]nc4-c4cc(Cl)ccc4F)nc3c2)CCN1 (stereo not shown)
≤ 0.02 µM

Give the measured IC50 for COCC(C)(CNc1cnc2ccc(-c3c[nH]nc3-c3cc(Cl)ccc3F)nc2c1)N1CCN(C(C)C)CC1 (stereo not shown)
0.2 to 1.26 µM

Respond only with IC50 recorded for CNCCn1cc(-c2cnc3ccc(-c4c[nH]nc4-c4cc(O)ccc4C)nc3c2)cn1
0.2 to 1.26 µM

Please supply the value of reported IC50 for the item COC(=O)C1CN(CCNc2cnc3ccc(-c4c[nH]nc4-c4cc(Cl)ccc4F)nc3c2)CCN1 (stereo not shown)
0.0251 to 0.158 µM

Quickly give me recorded IC50 for CN1CC2CN(c3cnc4ccc(-c5c[nH]nc5-c5cc(Cl)ccc5F)nc4c3)C2C1 (stereo not shown)
0.0251 to 0.158 µM
